molecular target: Myc proto-oncogene protein (Homo sapiens); experiment: ATG_Myc_CIS: Attagene CIS-FACTORIAL HepG2 Assay for human Myelocytomatosis (Myc) Proto-Oncogene Transcription Factor (AID 2282990); settings: HepG2, Attagene cis-reporter transcription factor activity; actives raise or lower the signal
Active and inactive are the calls of the source. The calls were made as follows: active = hit-call score of the fitted dose curve at least 0.9, where 1 is the maximum; inactive = score below 0.9.
Would you mind answering with one of these outcomes? active, inactive

Challenge: For O=C1C=CC(=O)N1c1ccc(Cc2ccc(N3C(=O)C=CC3=O)cc2)cc1 , what call appears in the results of this test?
Response given: inactive

Challenge: Please indicate how the test categorized CC1CCCCC1 .
Response given: inactive

Challenge: Tell me the recorded outcome of this test for CC(C)=CCCC(C)O (stereo unspecified) .
Response given: inactive

Challenge: Which outcome did this test record for the compound C=C(C)CCCC ?
Response given: inactive

Challenge: Recorded test outcome, item FC(F)(F)C(F)(F)C(F)(F)C(F)(F)C(F)(F)C(F)(F)C(F)(F)CCI
Response given: inactive

Challenge: Recorded test outcome, item CCCC(=O)OCC(COC(=O)CCC)OC(=O)CCC
Response given: inactive

Challenge: Record request — test call for FC(F)(F)C(F)(F)C(F)(F)C(F)(F)C(F)(F)C(F)(F)CC[Si](Cl)(Cl)Cl
Response given: inactive

Challenge: Kindly provide the recorded test outcome for the following compound: O=S(=O)(O)c1ccc(Cl)cc1
Response given: inactive

Challenge: Fill in: this test's call for Cc1ccc(S(=O)(=O)C(I)I)cc1 is ___
Response given: active

Challenge: So what was the verdict on CC(C)C(=O)OCc1ccccc1 in this test?
Response given: inactive

Challenge: // outcome(item) with item = C=CC(=O)OCC(F)(F)C(F)(F)C(F)(F)C(F)(F)C(F)(F)C(F)(F)C(F)(F)C(F)F
Response given: inactive

Challenge: Please state the recorded outcome for this compound: Brc1ccccn1
Response given: inactive

Challenge: Hello, I am checking results. What call was entered for NS(=O)(=O)C(F)(F)C(F)(F)C(F)(F)C(F)(F)C(F)(F)C(F)(F)F ?
Response given: inactive

Challenge: Write down the call the test reported for this compound. Item: O=C(O)C(F)(F)C(F)(F)C(F)(F)OC(F)(C(F)(F)F)C(F)(F)F
Response given: inactive

Challenge: Field: outcome | Entry: O=S(=O)(Cl)C(F)(F)C(F)(F)C(F)(F)C(F)(F)C(F)(F)C(F)(F)C(F)(F)C(F)(F)F
Response given: inactive

Challenge: Recorded call for C=CC(=O)OCCC(F)(F)C(F)(F)C(F)(F)C(F)(F)F ?
Response given: inactive

Challenge: Record lookup: outcome of this test for CCOC(=O)CC(=O)C(F)(F)C(F)(F)F ?
Response given: inactive

Challenge: Please share the test call associated with O=C1c2c(O)ccc(Nc3ccc(CCO)cc3)c2C(=O)c2c([N+](=O)[O-])ccc(O)c21 .
Response given: inactive

Challenge: Tell me the recorded outcome of this test for OCCCCC(F)(F)C(F)(F)C(F)(F)C(F)(F)F .
Response given: inactive

Challenge: Hi, do you know how O=C=NCc1cccc(CN=C=O)c1 came out in this test?
Response given: inactive

Challenge: In this assay, the call recorded for O=C1OC(=O)c2ccc3c4c(ccc1c24)C(=O)OC3=O was what?
Response given: inactive

Challenge: Given CCC/C=C/CO , state the outcome it received in this test.
Response given: inactive

Challenge: # lookup: test call for C=CC(=O)OCC(F)(F)C(F)(F)C(F)(F)COC(=O)C=C
Response given: inactive

Challenge: I'd appreciate the recorded outcome for COC(F)(C(F)F)C(F)(F)F (stereo unspecified) from this test.
Response given: inactive

Challenge: Identify the outcome logged in this assay for the compound shown: CCc1cc(Cc2cc(CC)c(N)c(CC)c2)cc(CC)c1N
Response given: active

Challenge: # fetch the recorded call for Brc1nc2ccccc2s1 here
Response given: inactive
